The values you see were collected from the NIST ThermoML archive (doi:10.1016/j.jct.2009.01.012).

- setup-conditions: 333.15 K; 101.33 kPa; Liquid; Vibrating tube method
Below is a list of entries, each paired with its recorded mass density value.
Answer with a number only, understood to be in kg/m3.

Solved cases below.
| compound | units-text | mass density |
| --- | --- | --- |
| CCCCCCCCCCCCCC[P+](CCCCCC)(CCCCCC)CCCCCC.O=S(=O)([N-]S(=O)(=O)C(F)(F)F)C(F)(F)F | kg/m3 | 1039.9 |
| CCCCCCCC[n+]1ccn(C)c1.F[P-](F)(F)(F)(F)F [1-octyl-3-methylimidazolium hexafluorophosphate] | kg/m3 | 1207.5 |
| CCCCCCCCCCCCCCn1cc[n+](C)c1.O=S(=O)([N-]S(=O)(=O)C(F)(F)F)C(F)(F)F | kg/m3 | 1184 |

# context switch: different compound, same mass density
Which mass density reading was recorded for the compound CC(=O)[O-].CCCCCCCCCCCCCC[P+](CCCCCC)(CCCCCC)CCCCCC [trihexyl(tetradecyl)phosphonium acetate] ?
870.4
